Values from the supplement of paper PMC11246515

Test: total protein half-life in vivo (active degradation + dilution); higher = more stable protein
Settings: E. coli NCM3722 delta-clpP; growth: N-lim chemostat; doubling time 6 h
Please provide measured total protein half-life in vivo for the entries that follow.

# batch size: 6; output total protein half-life in vivo per entry
1. MAKLTLQEQLLKAGLVTSKKAAKVERTAKKSRVQAREARAAVEENKKAQLERDKQLSEQQKQAALAKEYKAQVKQLIEMNRITIANGDIGFNFTDGNLIKKIFVDKLTQAQLINGRLAIARLLVDNNSEGEYAIIPASVADKIAQRDASSIVLHSALSAEEQDEDDPYADFKVPDDLMW
2. MSVIETATVPLAQQQADALLNVKDLRVTFSTPDGDVTAVNDLNFSLRAGETLGIVGESGSGKSQTAFALMGLLAANGRIGGSATFNGREILNLPEHELNKLRAEQISMIFQDPMTSLNPYMRVGEQLMEVLMLHKNMSKAEAFEESVRMLDAVKMPEARKRMKMYPHEFSGGMRQRVMIAMALLCRPKLLIADEPTTALDVTVQAQIMTLLNELKREFNTAIIMITHDLVVVAGICDKVLVMYAGRTMEYGNARDVFYQPVHPYSIGLLNAVPRLDAEGETMLTIPGNPPNLLRLPKGCPFQPRCPHAMEICSSAPPLEEFTPGRLRACFKPVEELL
3. MFKRRYVTLLPLFVLLAACSSKPKPTETDTTTGTPSGGFLLEPQHNVMQMGGDFANNPNAQQFIDKMVNKHGFDRQQLQEILSQAKRLDSVLRLMDNQAPTTSVKPPSGPNGAWLRYRKKFITPDNVQNGVVFWNQYEDALNRAWQVYGVPPEIIVGIIGVETRWGRVMGKTRILDALATLSFNYPRRAEYFSGELETFLLMARDEQDDPLNLKGSFAGAMGYGQFMPSSYKQYAVDFSGDGHINLWDPVDAIGSVANYFKAHGWVKGDQVAVMANGQAPGLPNGFKTKYSISQLAAAGLTPQQPLGNHQQASLLRLDVGTGYQYWYGLPNFYTITRYNHSTHYAMAVWQLGQAVALARVQ
4. MPKFRVSLFSLALMLAVPFAPQAVAKTAAATTASQPEIASGSAMIVDLNTNKVIYSNHPDLVRPIASISKLMTAMVVLDARLPLDEKLKVDISQTPEMKGVYSRVRLNSEISRKDMLLLALMSSENRAAASLAHHYPGGYKAFIKAMNAKAKSLGMNNTRFVEPTGLSVHNVSTARDLTKLLIASKQYPLIGQLSTTREDMATFSNPTYTLPFRNTNHLVYRDNWNIQLTKTGFTNAAGHCLVMRTVINNKPVALVVMDAFGKYTHFADASRLRTWIETGKVMPVPAAALSYKKQKAAQMAAAGQTAQND [P0AFI5]
5. MNIENLKTKAEADISEYITKKIIELKKKTGKEVTSIQFTAREKMTGLESYDVKINLI
6. MPVRASIEPLTWENAFFGVNSAIVRITSEAPLLTPDALAPWSRVQAKIAASNTGELDALQQLGFSLVEGEVDLALPVNNASDSGAVVAQETDIPALRQLASAAFAQSRFRAPWYAPDASSRFYAQWIENAVRGTFDHQCLILRAASGDIRGYVSLRELNATDARIGLLAGRGAGAELMQTALNWAYARGKTTLRVATQMGNTAALKRYIQSGANVESTAYWLYR

Result:
1: 4.88 h; 2: 5.71 h; 3: 5.65 h; 4: 4.68 h; 5: 6.7 h; 6: 5.45 h
